All figures here come from the supplement of paper PMC9170038.

test system: MS2 coat protein; test: apparent KD of MS2 coat protein, switch OFF state (with FMN for OFF switches, without FMN for ON switches); designed switch direction (-1 OFF switch, 1 ON switch): -1; higher = weaker reporter binding; details: FMN input: 0 or 200 uM; Eterna round: R93 (includes R88 designs)
Value kind: apparent KD of MS2 coat protein (nM)
Answer format: numeric, nM implied, no suffix.

Exam item: Any idea what apparent KD of MS2 coat protein came out for AGCUAGUCAGGAUAUACAAACAUGUCAAAAGACGUGAAGAAACAUGAGGAUCACCCAUGUAGAAGGGACUAGCA [Mat - Exclusion 2 - JL mod - D16] on MS2 coat protein?
Marked response: 14.5

Exam item: // next record AGCUAACAUGAGGAUCACCCAUGUCAGGAUAUGCAAAGAUCGAUCGAACGAUCGAUAAGCAGAAGGGACACUGA [Amethyst 94]
Marked response: 47.5

Exam item: // next record AAACCACAUGAGGAUCACCCAUGUCAGGAUAUGAACGAAAAUAAAUAAAAAUAAAAGUUCAGAAGGGACGAAAA [66%, Wbt, 15]
Marked response: 37.2

Exam item: // next record ACUAUACGAGGAUAUGCUGUCAACACUAAGGAAUUCGUAUGACAUGAGGAUCACCCAUGUAGAAGGCGUAUACU [JR_Exc002_Sub510]
Marked response: 27.7

---

test system: K4 kissing-loop RNA reporter; experiment: apparent KD of K4 kissing-loop reporter; higher = weaker reporter binding; conditions: Eterna round: R107; input ligand: arginine 13.2 mM;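 further: bound reporter read as fluorescence of individual clusters on recovered sequencing chips by microscopy, with normalized cluster intensities fitted with a binding model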
Value kind: apparent KD of K4 kissing-loop reporter (nM)
Answer format: numeric, nM implied, no suffix.

Exam item: Any idea what apparent KD of K4 kissing-loop reporter came out for AAUUCAGUGAUGUUGGAAGGCAGGAGGGAUACCAGCGGAAAUAAACGCCCUUGGCAGCCCAAAUAUCCCAAAUAGAUAAUAAUUU [Same State - Theophylline A (Freestyle 1)] on K4 kissing-loop RNA reporter?
Marked response: 381

Exam item: // next record GUGGAAUUAUGAAAGUGGUUUUAUAAGGAAGGAGCGGCCGAAAGGCCAGGUAGGUCGCCUAUUGACAGUGAUGUUGUUAUAUGGA [#13]
Marked response: 180

Exam item: // next record UCCUGCACGGUCGAUACCAGCCUAUGCAGUGAUGUUGUAAGGUUGUCACUUUAGUACGAAGGCCCUUGGCAGCGAUGAUGUAACA [theeternabot_exclusion_KL_Theo_B_41]
Marked response: 470

Exam item: // next record CUUGGUCUACGAAGGAGCGCCGUGCAGUGAUGUUGCAGUCAGAUCGAGUGAUGUUUCGGGCGGCAGGUAGGUCGCGUGGCCCUUU [Excusion Arginine B GF 26]
Marked response: 455

Exam item: // next record AAUGUACAAGUGAUGUUUGUACUUUCCGAAGGAGCGUCUAAUAAGACAGGUAGGUCGCGGAUUCUCUUAAUUAUCAGGUCAUUAA [JR_ExcArginiA_Sub017]
Marked response: 81.3

Exam item: // next record GCAGUGAUGUUGCGGAUGUACAGUGGCGUGCGAGGACCGGUACGGCCGCCACUCGUACAGAGCCAGCUAAUACAUCGAUUGGUGA [whbob_SS_Tryp_A_m7]
Marked response: 176

Exam item: // next record UUCUACGAGUGAUGUUCGUAGUGUAAUAGCUAGGAUAUCGUUUUUUCGAGAAGGAGCUUCGAAGUGAUACGAAAGUAUCGCUUCG [FMN A 12]
Marked response: 369

Exam item: // next record CCGGGCGGCCGAAGGAGCGGGCGGGCCCGAGUGAUGUUCGGGUGGACCGUGAGGUCCGGUGCCCAGGUAGGUCGCGGUUCCGCCC [#2 Same State - Arginine B Attempt #7 (HarryS)]
Marked response: 123

Exam item: // next record GGUAGCAUGGCGGCCGCCACUAUCAGGAGUGAUGUUCCAACGCAGAGCUUCAGCUAGUGUGUAAAUAGGACCGGGCCAUGCUACC
Marked response: 69.8

Exam item: // next record AUUUAUGUUUCGGCCGCCACUCCACGUACUCAGAGAGAGUGAUGUUCUUUUUAUUAACGUCUAUGGAGGACCGGGAAGAGGUGAG [theeternabot_exclusion_KL_Trp_B_37]
Marked response: 640

Exam item: // next record UUAUAUUUUAUAUUUAGUAGAGCUCUAGCUCGAGGACCGGUACGGCCGCCACUCGAGUGAUGUUCGAGUGGAAGAGCUCUACAUU [AK3.1 EXC Tryptophan A]
Marked response: 99.9

Exam item: // next record AAGGCCACGAGAAGGAGCGUGCUGUGGAGUGAUGUUCCAUUGUAGACCUAAGGUCUACGAGCACAGGUAGGUCGCUCGUGGUCAA [Omei KL Arginine B SS A v4]
Marked response: 97.4

Exam item: // next record GGUAGCAUCGCGGCCGCCACUAAUCGCUAAGGCUCAGGACCCUAAUAGCGAGUGAUGUUCGCCCUUAGGACCGGGCGAUGCUACC
Marked response: 93.3

Exam item: // next record GGAUCCACCAGUGAUGUUGGAGAAAACUCCAAGGAUAUGACGAAAGUCAGAAGGUGGUAGACUGGUCAAAGUCCGGUCGGAUCCA [FmnA10 U66]
Marked response: 77.4

Exam item: // next record AAUAAUCUAGGUGAUACCAGCUCAACAUGAGUGAUGUUCAUGAAAUAAUGUAGAGUUGAGAGCCCUUGGCAGCACCUAGAUAAUA [KL-SSTheoB5]
Marked response: 222

Exam item: // next record ACGAUCAUGUCGGCCGCCACUGAGAGUAGUGAUGUUACUCUUUUCCUUUAGUUAUUAUAUUUUAUCAGGACCGGGACAUGUUCGU [JR_ExcTryptoB_Sub022]
Marked response: 66.7

Exam item: // next record UUCCUCAUGGUAGUGAUGUUGCCGCCCGAUACCAGUCGACGUAUUGACCCUUGGCAGCGGAUCAAGUCCGAUUAAUUUUUUGGUC [theeternabot_sameState_KL_Theo_A_5]
Marked response: 190

Exam item: // next record GGCAGUGAUGUUGCCAGUGGCAGAUGCGAAGGAGCGCGGUGAGACGCAGGUAGGUCGCGCAUUGAAAUUGCUGUCACUAGAAUGC [whbob_Ex_Arginine_A_2t127]
Marked response: 285

Exam item: // next record AGCCGAAAGGCGAGUGCUGUCACUCCGGAAGGAGCGCUCGAAAGAGCAGGUAGGUCGCCGGAGUGAUGUUCCGGUGCAGCACUCA [Omei KL Arginine A Exc B v5]
Marked response: 390

Exam item: // next record UAAUGUGGCACAGGAUAUACUGAUUGGAGUGAUGUUCCAAACAUGGACGUGAGACUUUUACAAGAAGUAGAAGGGUGUUAGAUAU [Exclusion FMN B GF 20]
Marked response: 298

Exam item: // next record AAAGGAUCAGAGAGUGAUGUUCUCUAAUAACGAGGACCGGUACGGCCGCCACUCGAAGAUCCAAAAGUCCUACGAAAAGUAGGAC [Omei inspired 7]
Marked response: 69.3

Exam item: // next record CCAUCGCUAUUCGAUACCAGCUCCUUAGUGAUGUUAAGGUUUUACGCUCUGUAGGAGCGAAGCCCUUGGCAGCGAGUAGUGAUGG [#04 K4 Theophylline B Same State]
Marked response: 832

Exam item: // next record AGUACGGUGCCGUUCAGAUCAACGUAUGAUACCAGCUCGUAUAUUAGCCCUUGGCAGCAUCCGAGUGAUGUUCGGAUUGUGCCAC [theeternabot_exclusion_KL_Theo_A_45]
Marked response: 98
